Values compiled from patent US7291609B2.

target: glucocorticoid receptor (Homo sapiens); construct: A549 cells stably transfected with a reporter gene; endogenous in cells; experiment: NF-κB transrepression reporter assay (ELAM promoter-sPAP) in A549 cells; details: compound 1 hour at 37° C., then TNF 10 ng/ml for 16 hours, read-out: EC50 (transrepressive activity)
Sequence (P04150 whole entry): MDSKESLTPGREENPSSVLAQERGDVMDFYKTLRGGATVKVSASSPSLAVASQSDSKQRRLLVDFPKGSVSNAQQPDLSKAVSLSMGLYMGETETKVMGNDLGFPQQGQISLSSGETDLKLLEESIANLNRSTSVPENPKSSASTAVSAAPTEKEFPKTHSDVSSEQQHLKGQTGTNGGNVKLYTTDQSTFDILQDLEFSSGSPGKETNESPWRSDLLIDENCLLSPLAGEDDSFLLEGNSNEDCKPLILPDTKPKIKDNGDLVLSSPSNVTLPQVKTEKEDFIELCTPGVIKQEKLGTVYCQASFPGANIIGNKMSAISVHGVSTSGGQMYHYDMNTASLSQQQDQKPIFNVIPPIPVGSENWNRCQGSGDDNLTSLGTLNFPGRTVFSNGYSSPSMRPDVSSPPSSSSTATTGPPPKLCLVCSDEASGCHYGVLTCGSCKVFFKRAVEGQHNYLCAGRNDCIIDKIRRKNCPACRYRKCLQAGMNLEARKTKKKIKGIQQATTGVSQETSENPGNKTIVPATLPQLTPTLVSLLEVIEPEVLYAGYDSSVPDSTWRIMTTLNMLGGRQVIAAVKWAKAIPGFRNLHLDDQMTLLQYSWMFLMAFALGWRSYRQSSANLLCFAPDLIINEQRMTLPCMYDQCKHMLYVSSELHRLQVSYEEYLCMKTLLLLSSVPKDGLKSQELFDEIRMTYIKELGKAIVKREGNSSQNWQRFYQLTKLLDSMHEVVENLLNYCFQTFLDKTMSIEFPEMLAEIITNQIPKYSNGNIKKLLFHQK
Recorded endpoint: EC50

The compound identified as C[C@@H]1C[C@H]2[C@@H]3C[C@H](F)C4=CC(=O)C=C[C@]4(C)[C@@]3(F)[C@@H](O)C[C@]2(C)[C@@]1(OC(=O)C1C(C)(C)C1(C)C)C(=O)OCC#N [Example 1] registered its EC50 at < 0.1 nM
